System: Plasmodium falciparum
Experiment: Antimalarial activity against Plasmodium falciparum 3D7 infected-erythrocytes after 72 hrs by SYBR green fluorescence method
Assay type: functional, organism-based
Conditions: 3D7, 72 h
pIC50: −log10 of the molar value.
Observable: pIC50

>>> print(df.to_string())
                                   compound                 system  result
0  CC(C)C[C@H](NC(=O)[C@@H](O)[C@H](N)Cc1ccc(-c2ccccc2)cc1)C(=O)O  Plasmodium falciparum  < 4.30
1  CC(C)C[C@H](NC(=O)[C@@H](O)[C@H](N)Cc1ccc(OCc2ccccc2)cc1)C(=O)O  Plasmodium falciparum    4.54
2  CC(C)C[C@H](NC(=O)[C@@H](O)[C@H](N)Cc1ccc2ccccc2c1)C(=O)O  Plasmodium falciparum  < 4.30
3  COc1ccc(C[C@@H](N)[C@H](O)C(=O)N[C@@H](CC(C)C)C(=O)O)cc1  Plasmodium falciparum    5.19
4  CC(C)C[C@H](NC(=O)[C@@H](O)[C@H](N)CC(C)C)C(=O)O  Plasmodium falciparum  < 4.30
5  CCCC[C@@H](N)[C@H](O)C(=O)N[C@@H](CC(C)C)C(=O)O  Plasmodium falciparum  < 4.30
6  CC(C)C[C@H](NC(=O)[C@@H](O)[C@H](N)Cc1ccccc1)C(=O)O [UBENIMEX]  Plasmodium falciparum    5.49
7  CC(C)C[C@H](NC(=O)[C@@H](O)[C@H](N)C(c1ccccc1)c1ccccc1)C(=O)O  Plasmodium falciparum  < 4.30
